Reported protein stability index by item:
B1: FBF1 (parent)
chain: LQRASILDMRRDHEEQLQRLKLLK

# Variants of: B1
# ASSAY COMMENT: protein stability index of a GFP-peptide fusion (GPS, HEK-293T) (PSI 1-6); higher = more stable;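 further: lentivirally expressed fusions sorted by FACS into six bins by GFP to DsRed ratio, PSI derived from sequencing read proportions per bin multiplied by bin number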
# STATED CONDITIONS: c terminus: a fixed tail appended

SEQUENCE CHAIN: LQRASILDMRRDHNEQLQRLKLLK [E14N]
protein stability index: 2.86
//
SEQUENCE CHAIN: LQRASILDMRRDHEEQLQRLYLLK [K21Y]
protein stability index: 2.98
//
SEQUENCE CHAIN: LQRASIEDMRRDHEEQLQRLKLLK [L7E]
protein stability index: 4.55
//
SEQUENCE CHAIN: LQRASILDMRRDHEEQLQRLRLLK [K21R]
protein stability index: 3.28
//
SEQUENCE CHAIN: LQRASILDMRRDHEHQLQRLKLLK [E15H]
protein stability index: 3.09
//
SEQUENCE CHAIN: LQRASILDMRRDHEEQLQRLKVLK [L22V]
protein stability index: 3.92
//
SEQUENCE CHAIN: LQRASILDMRRDHEEQLQRLKLQK [L23Q]
protein stability index: 4.15
//
SEQUENCE CHAIN: LQRASILDMIRDHEEQLQRLKLLK [R10I]
protein stability index: 2.96
//
SEQUENCE CHAIN: LQWASILDMRRDHEEQLQRLKLLK [R3W]
protein stability index: 1.9
//
SEQUENCE CHAIN: LQRASIQDMRRDHEEQLQRLKLLK [L7Q]
protein stability index: 3.65
//
SEQUENCE CHAIN: LQRASILDMRRDHEEWLQRLKLLK [Q16W]
protein stability index: 2.97
